Each record here notes measured pIC50.
- System: IgE-mediated RBL-2H3 mast cell activation
- Measurement description: Cell-substrate impedance assay: pharmacological inhibition of antigen-mediated mast cell activation
- Format: cell-based, rat
- Test settings: Rattus norvegicus, RBL-2H3; mast cell activation by impedance; Bisindolylmaleimide N=3, SU6656 N=5, U73122 N=5, Piceatannol N=1; at peak response; read-out: IC50±SD
Scale for pIC50: -log10 of concentration given in mol/L; no unit attached.

CN(C)S(=O)(=O)c1ccc2c(c1)/C(=C/c1cc3c([nH]1)CCCC3)C(=O)N2: 5.24

Pending compound:
Enquiry: // pIC50 lookup, key: `Oc1cc(O)cc(/C=C/c2ccc(O)c(O)c2)c1`
Return: 6.00

====

- Tested on: IgE-mediated RBL-2H3 mast cell activation
- Measurement description: Cell-substrate impedance assay: pharmacological inhibition of antigen-mediated mast cell activation
- Type: cell-based, rat
- Test settings: antigen-mediated RBL-2H3 activation, at peak response; read-out: IC-50 value
- Description: RBL-2H3 mast cells were sensitized with 100 ng/mL anti-DNP-IgE and then incubated with the indicated concentrations of the Bisindolylmaleimide 1 hour prior to addition of 100 ng/mL DNP-BSA. The impedance value indicated as Cell Index was monitored using a cell-substrate impedance monitoring system of the present invention. […] To quantify cell status based on the measured cell-electrode impedance, a parameter termed Cell Index is derived, according to […]
pIC50: −log10 of the molar value.
Assay metric: pIC50

Enquiry: // pIC50 lookup, key: `COc1ccc2c(c1)CC[C@@H]1[C@@H]2CC[C@]2(C)[C@@H](NCCCCCCN3C(=O)C=CC3=O)CC[C@@H]12`
Return: ~6.00

====

- Tested on: IgE-mediated RBL-2H3 mast cell activation
- Measurement description: Cell-substrate impedance assay: pharmacological inhibition of antigen-mediated mast cell activation
- Format: cell-based, rat
- Test settings: mast cell activation by impedance; Bisindolylmaleimide N=3, SU6656 N=5, U73122 N=5, Piceatannol N=1; at peak response; read-out: IC50±SD
- Method: RBL-2H3 mast cells were sensitized with 100 ng/mL anti-DNP-IgE and then incubated with the indicated concentrations of the Bisindolylmaleimide 1 hour prior to addition of 100 ng/mL DNP-BSA. The impedance value indicated as Cell Index was monitored using a cell-substrate impedance monitoring system of the present invention. […] To quantify cell status based on the measured cell-electrode impedance, a parameter termed Cell Index is derived, according to […]
Assay metric: pIC50
Scale for pIC50: -log10 of concentration given in mol/L; no unit attached.

Enquiry: // pIC50 lookup, key: COc1ccc2c(c1)CC[C@@H]1[C@@H]2CC[C@]2(C)[C@@H](NCCCCCCN3C(=O)C=CC3=O)CC[C@@H]12 [U73122]
Return: 6.03

Hello, the source for this data is patent US20230145666A1, in case you need it.
